# Test system: LOX IMVI
# PROCEDURE TEXT: NCI tumour cell line growth inhibition, 48 h
Activity calls are given as the source filed them. Cut-off read from the data, not from the text of the source: active = GI50 up to about 1.1 µM and inactive = higher.
VALUE TYPE: GI50

Previously resolved entries follow.
CC(C)C1OCC(CO)CO1 (stereo not drawn) :: > 100 µM (inactive)
COc1ccc2c(c1)/C(=C\c1c(Cl)[nH]c3ccccc13)C(=O)N2 :: 5.09 µM (inactive)
CN1N=C(c2ccncc2)OC1c1cccc(F)c1 (stereo not drawn) :: > 100 µM (inactive)
O=C1Nc2ccc(Br)cc2/C1=N/Nc1ccc([N+](=O)[O-])cc1[N+](=O)[O-] :: 1.73 µM (inactive)
Cc1noc2nnn(-c3ccc(Cl)cc3)c(=O)c12 :: 2.5 µM (inactive)
NCc1cccc(O)c1O :: > 100 µM (inactive)

Lab note: compound `CC1=C(C(=O)Nc2ccc([N+](=O)[O-])cc2)C(c2cccc([N+](=O)[O-])c2)C(C(=O)Nc2ccc([N+](=O)[O-])cc2)=C(C)N1` tested on LOX IMVI; recorded GI50 was 11.1 µM (inactive)

Lab note: compound `Cc1c(-c2nc3ccccc3[nH]2)c(=O)n(-c2ccccc2)n1C` tested on LOX IMVI; recorded GI50 was > 100 µM (inactive)

Lab note: compound `CC(C)CNC(=O)Cn1c2c(c3ccccc31)CCCC2` tested on LOX IMVI; recorded GI50 was 39.5 µM (inactive)

Lab note: compound O=C1c2cc3c(cc2[C@@H]2C(O)[C@H]4O[C@H]4C4CCN1C42)OCO3 (stereo partly drawn) tested on LOX IMVI; recorded GI50 was > 37.5 µM (inactive)

Lab note: compound `CCOC(=O)c1cc(NC(=O)c2ccccc2)c(=O)n2c(cc3c(Cl)cccc32)c1O` tested on LOX IMVI; recorded GI50 was > 100 µM (inactive)

Lab note: compound COC(=O)N(C(=O)OC)C(C(=O)O)C(C)C (stereo not drawn) tested on LOX IMVI; recorded GI50 was > 100 µM (inactive)

Lab note: compound `CCSc1c2cc(OC)ccc2nc2ccc(OC)cc12` tested on LOX IMVI; recorded GI50 was 13.2 µM (inactive)

====

# Test system: SN12C
# PROCEDURE TEXT: NCI tumour cell line growth inhibition, 48 h
The source made the active and inactive calls. No stated cut-off is given here; in the data, active = GI50 up to about 1.1 µM and inactive = higher.
VALUE TYPE: GI50

Previously resolved entries follow.
O/N=C1/COC(C(F)(F)F)(C(F)(F)F)C1 :: > 100 µM (inactive)
C=CCNC(=O)NNC(O)(C(=O)OCC)C(F)(F)F (centres undefined) :: > 100 µM (inactive)
C=CCOCn1ccc(NC(=O)c2ccccc2)nc1=O :: > 100 µM (inactive)

Input O=C1OC2(C(F)(F)F)Oc3ccccc3CN2C12CCCCC2 (centres undefined) . Output GI50: 24.7 µM (inactive)

====

# Tested on: NCI-H226
# PROCEDURE TEXT: NCI tumour cell line growth inhibition, 48 h
Active and inactive are the calls of the source. Rule as the data show it: active = GI50 up to about 1.1 µM and inactive = higher.
Hello, when you answer, please use one of the following outcomes: y for active, n for inactive

Past entries and their recorded results:
COC1=CC23C=CC1[C@@H](c1ccccc1)C2=C(C)C(=O)N3C(=O)NC1CCCCC1 (stereo partly specified) :: n
COc1ccccc1N1CCN(CCCN2C(C(=O)c3ccccc3)=C(O)c3c(C)cc(C)nc3S2(=O)=O)CC1 :: y

# fetch the recorded call for `CSc1nc(-c2ccc(C)cc2)c(C#N)c(=O)[nH]1` here
n

# fetch the recorded call for `O=c1c2cc(Br)ccc2nc(CNc2ccccc2)n1-c1ccccc1` here
n

# fetch the recorded call for CC(C)(C)C1CCC2c3c([nH]c4ccccc34)C3C(=O)N(c4ccc(C#N)cc4)C(=O)C3C2C1 (stereo unspecified) here
n

# fetch the recorded call for `CC[N+](CC)(CC)/C(=N\S(=O)(=O)c1ccc(Cl)cc1)[N-]S(=O)(=O)c1cc(C)c(Cl)cc1S` here
n

// provenance: ChEMBL document CHEMBL1201862
